From: PubChem BioAssay (NCI)

Test system: NCI-H226 lung
Experiment: NCI-60 one-dose screen, 48 h
Conditions: 10 µM
Compounds without any hit were thinned out: in the full panel of roughly 83,000, 20% have a hit. Calls of active or inactive are those of the source. The calls were made as follows: active = growth percent below 10; inactive = the rest.
Output constraint: value belongs to active, inactive

>>> assignedlabel("COC(=O)C[C@](O)(CCC(C)C)C(=O)O[C@@H]1C(OC)=C[C@]23CCCN2CCc2cc4c(cc2[C@H]13)OCO4")
"active"
>>> assignedlabel("CC(=C\\C(=O)Oc1ccc2c3c1OC1C(O)CCC4(O)C(C2)N(CC2CCC2)CCC314)/C=C1\\CCCc2ccccc21 (centres undefined)")
"inactive"
>>> assignedlabel("CC(C)N=C([Se])NC(=O)c1ccccc1")
"active"
>>> assignedlabel("O=C(/C=C/c1ccccc1Cl)c1nc2ccccc2n1Cc1ccc(F)cc1")
"active"
>>> assignedlabel("O=C(NC([Se])=NC1CCCCC1)c1ccc2c(c1)OCO2")
"inactive"
>>> assignedlabel("C[C@H]1[C@H](OC(=O)CCC(=O)Nc2cnccn2)O[C@@H]2OC3(C)CC[C@H]4[C@H](C)CC[C@@H]1[C@@]24OO3")
"inactive"
>>> assignedlabel("CC12OOC(C)(OO1)C2CCC(=O)NCCNc1ccnc2cc(Cl)ccc12 (centres undefined)")
"inactive"
>>> assignedlabel("N#C[Se]CC(=O)Nc1cccc(C(F)(F)F)c1")
"active"

Now examine the next entry.
Task: I would be grateful if you could indicate the recorded call for CC[C@]12C=CCN3CC[C@@]4(c5ccc(OC)cc5N(C)[C@H]4[C@@](O)(C(=O)OC)[C@@H]1OC(=O)CCC[P+](c1ccc(C)cc1)(c1ccc(C)cc1)c1ccc(C)cc1)[C@@H]32 .
Result: active

----------
System: MALME-3M melanoma
Experiment: NCI-60 one-dose screen, 48 h
Details: 10 µM
This is part of a sample that, as a whole, favours compounds with a hit. Of some 83,000 tested, about 20% had one in any assay. Calls of active or inactive are those of the source. The calls were made as follows: active = growth percent below 10; inactive = the rest.
Output constraint: value belongs to 1.0 = active, 0.0 = inactive

Solved entries:
>>> assignedlabel("C#CCCCN(CCNc1ccnc2cc(Cl)ccc12)C(=O)CCC(=O)O[C@@H]1O[C@@H]2OC3(C)CC[C@H]4[C@H](C)CC[C@@H]([C@H]1C)[C@@]24OO3")
0.0
>>> assignedlabel("C[C@H]1[C@@H](CC(=O)N[C@@H](Cc2coc3ccccc23)B(O)O)O[C@@H]2OC3(C)CC[C@H]4[C@H](C)CC[C@@H]1[C@@]24OO3")
1.0
>>> assignedlabel("O=C(/C=C/c1ccco1)c1nc2ccccc2n1Cc1ccc(Br)cc1")
0.0

Task: I would be grateful if you could indicate the recorded call for COc1ccc2cc([C@H](C)C(=O)[Se]CCC#N)ccc2c1 .
Result: 1.0

Task: I would be grateful if you could indicate the recorded call for CC(=O)Oc1ccccc1C(=O)[Se]C(=NC(C)C)NC(C)C .
Result: 1.0

Task: I would be grateful if you could indicate the recorded call for CC[C@]12C=CCN3CC[C@@]4(c5ccc(OC)cc5N(C)[C@H]4[C@@](O)(C(=O)OC)[C@@H]1OC(=O)CCCC[P+](C1CCCCC1)(C1CCCCC1)C1CCCCC1)[C@@H]32 .
Result: 1.0

Task: I would be grateful if you could indicate the recorded call for CC(=O)Oc1ccccc1C(=O)NC([Se])=NC1CCCCC1 .
Result: 1.0
